test: qHTS for Inhibitors of human tyrosyl-DNA phosphodiesterase 1 (TDP1): qHTS in cells in absence of CPT; conditions: DT40 Tdp1-/- hTDP1 cells, no CPT, ATP luminescence, 48 h; note: nearly all actives have a fitted effect of over 55% in size
The whole screen tested about 420,000 compounds, of which about 64,000 (15%) were called active. Inconclusive results (about 27%) are left out. Calls come from the whole dose curve; as a rule, active = well fitted inhibition curve with a large enough effect; inconclusive = small, poorly fitted or top-dose-only effect; inactive = flat fitted curve, though single readings scatter. The list is a sample of the results.
Outcome codes: 1 for active, -1 for inactive

compound: O=C(NCc1ccccc1Cl)C1CCN(S(=O)(=O)N2CCOCC2)CC1
labelValue: -1

compound: CN(C)CCN(C(=O)CN1C(=O)c2ccccc2C1=O)c1nc2cc3c(cc2s1)OCCO3
labelValue: -1

compound: COc1ccccc1N(C)C(=O)c1cc(S(=O)(=O)N2CCc3ccccc32)cn1C
labelValue: 1

compound: Cc1cc2c(cc1C)[n+](C)cn2CC(O)COCC1CC=CCC1 (stereo unspecified)
labelValue: 1

compound: CCc1ccc(CNC(=O)C2CCN(c3nn4cc(-c5ccc(F)cc5)nc4s3)CC2)cc1
labelValue: -1

compound: COc1ccc(Br)cc1/C=N/Nc1ccc(Cl)c(C(=O)O)c1
labelValue: -1

compound: O=c1c2ccccc2nc2n1C(CSc1ccc(Cl)cc1)CN2 (stereo unspecified)
labelValue: -1

compound: COC(CNC(=O)Cn1ncc2ccsc2c1=O)OC
labelValue: -1

compound: C/C(Cc1ccccc1)=N\NC(=O)CNC(=O)c1ccccc1Cl
labelValue: -1

compound: Cc1ccc(NC(=O)N2CCC(C(=O)NCc3ccc(F)cc3)CC2)cc1
labelValue: -1

compound: O=C(O)Cc1ccc(-c2ccccc2)cc1
labelValue: -1
